Values of pIC50 for UniProt P36888, collected from a number of published sources:
# TARGET_DESC: UniProt P36888
# Sequence (P36888 whole entry): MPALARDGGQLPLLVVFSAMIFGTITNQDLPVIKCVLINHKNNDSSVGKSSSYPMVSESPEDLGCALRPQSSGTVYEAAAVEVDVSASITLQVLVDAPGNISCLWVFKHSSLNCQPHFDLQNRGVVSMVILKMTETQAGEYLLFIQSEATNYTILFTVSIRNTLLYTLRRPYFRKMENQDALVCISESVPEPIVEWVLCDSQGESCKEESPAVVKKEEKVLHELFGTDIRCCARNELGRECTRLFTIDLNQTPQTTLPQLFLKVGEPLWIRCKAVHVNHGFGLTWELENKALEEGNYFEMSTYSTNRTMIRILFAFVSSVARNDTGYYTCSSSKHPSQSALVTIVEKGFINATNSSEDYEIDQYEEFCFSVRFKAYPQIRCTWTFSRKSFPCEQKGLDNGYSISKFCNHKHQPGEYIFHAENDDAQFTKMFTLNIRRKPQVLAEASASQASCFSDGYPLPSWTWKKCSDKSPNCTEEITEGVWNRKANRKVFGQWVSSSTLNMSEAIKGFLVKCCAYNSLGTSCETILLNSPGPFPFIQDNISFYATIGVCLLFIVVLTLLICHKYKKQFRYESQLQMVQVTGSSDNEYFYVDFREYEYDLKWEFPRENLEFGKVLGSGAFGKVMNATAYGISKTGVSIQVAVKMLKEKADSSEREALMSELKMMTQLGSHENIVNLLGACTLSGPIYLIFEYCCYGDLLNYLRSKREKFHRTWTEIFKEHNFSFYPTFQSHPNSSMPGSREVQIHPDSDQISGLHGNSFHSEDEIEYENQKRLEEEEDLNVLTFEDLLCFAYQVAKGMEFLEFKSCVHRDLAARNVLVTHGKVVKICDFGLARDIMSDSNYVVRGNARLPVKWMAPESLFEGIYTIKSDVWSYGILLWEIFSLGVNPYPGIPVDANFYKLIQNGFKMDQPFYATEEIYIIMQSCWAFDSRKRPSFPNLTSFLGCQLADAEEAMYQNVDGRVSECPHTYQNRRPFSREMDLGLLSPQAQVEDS
pIC50: −log10 of the molar value.
QUANTITY_NAME: pIC50

// known answers, use as guide
| STRUCTURE_NOTATION | QUANTITY_NAME | MEASURED |
| --- | --- | --- |
| CN1CCN(c2ccc(C(=O)Nc3cc(-c4cccc(N)c4)n[nH]3)cc2)CC1 | pIC50 | 7.85 |
| Nc1noc2cccc(-c3ccc(NC(=O)Nc4ccc(F)c(C(F)(F)F)c4)cc3)c12 | pIC50 | 7.55 |
| CSc1cc(N2CCOCC2)ccc1NC(=O)c1cnn2ccc(N[C@@H]3CCCNC3)nc12 | pIC50 | 8.92 |

1: Cl.O=C1Nc2ccc(F)cc2/C1=C1/Nc2ccc(F)cc2/C1=N\OCCNC1CCNCC1
2: CCn1ccc(NC(=O)Cc2ccc(Oc3ncnc4cc(OC)c(OC)cc34)cc2)n1
3: COc1cccc(NC(=O)Cc2ccc(Oc3ncnc4cc(OC)c(OC)cc34)cc2)c1
[Q] Rank the 3 compounds: largest pIC50 first, smallest last. Provide the ranking by listing each label in its place in the requested order.
[A] 3, 1, 2
(3: 8.15, 1: 7.94, 2: 7.70)
